Test system: OVCAR-5 ovarian
Test: NCI tumour cell line growth inhibition, 48 h
parameter.measured: GI50

Please give the measured GI50 for this compound: `Cc1cc2cc3cc(C)c(N(C)C)cc3[n+](C)c2cc1N(C)C`
11.9 µM

And then CN(CCCCCl)P(=O)(OCc1ccc([N+](=O)[O-])o1)OCC1OC(n2ccc(N)nc2=O)C(F)(F)C1O (centres undefined) , what is it?
1.92 µM

Entry `Cn1cc(C2=C(c3cn(CCO)c4ccccc34)C(=O)NC2=O)c2ccccc21` please
10.9 µM

Further, for `CCOc1ccccc1NC(=O)c1cc2ccccc2cc1O` ?
7.06 µM

Next entry: `S=C(N/N=C(/c1ccccc1)c1ccccn1)N1CCCCC1`
< 0.001 µM

Check `CCN1/C(=C/C=C/c2n(-c3ccccc3)c3ccc(-c4nc5ccccc5s4)cc3[n+]2CC)N(c2ccccc2)c2ccc(-c3nc4ccccc4s3)cc21` too.
1.53 µM

Next: `Cc1ccc(NC(=O)Cc2ccc(/C=C/C(=O)c3ncc[nH]3)cc2)cc1`
6.84 µM

And what about the compound CC(=O)N1N=C(c2ccc(Nc3nc(Nc4ccc(Cl)cc4)nc(Nc4ccc(Cl)cc4)n3)cc2)CC1c1ccc([N+](=O)[O-])cc1 (centres undefined) ?
19.4 µM

Consider next the compound `Fc1ccc(-c2nn3c(-c4ccc(F)c(Cl)c4)nnc3s2)cc1` in the same way.
> 50 µM

----------
Test system: NCI-H226 lung
Test: NCI tumour cell line growth inhibition, 48 h
parameter.measured: GI50

Given the compound `COC(=O)C1=C(C)NC(C)=C(C(=O)OC)C1/C=C(\Cl)c1ccc(Cl)c(Cl)c1` , what is its reported GI50?
15.8 µM

Please do the same for CC(=O)CCc1ccc(OC2OC(COC(=O)c3cc(O)c(O)c(O)c3)C(O)C(O)C2OC(=O)/C=C/c2ccccc2)cc1 (stereo not given) as well.
16.9 µM

Entry `O=c1ccc(N=Nc2ccc([N+](=O)[O-])cc2)ccc1O` please
12.7 µM

And `CCCCOc1ccc(NC(=O)n2nc(N)c3ccccc32)cc1` ?
21 µM

Field entry: `CCCc1cc(O)c2c3c(c(=O)oc2c1)CN(C)CC3`
> 100 µM

Another compound to look at: `COc1cc(-c2nc3sccn3c2-c2ccnc(NCCNS(=O)(=O)c3ccc(Cl)cc3)n2)ccc1F`
2.37 µM

Same read-out for O=C1C2C(C(=O)[N]1[Hg][c]1cccs1)C1(Cl)C(Cl)=C(Cl)C2(Cl)C1(Cl)Cl (stereo not given) ?
6.88 µM

Moving on to `CCCCCc1nc2c(c3c1CCCC3)CCCC2`
9.57 µM

What do we get for `N#Cc1cccc(OCc2nc(N)nc(N)c2-c2ccc(Cl)c(Cl)c2)c1` ?
7.44 µM

And what about the compound `Cn1cc(C2=C(c3cn(CCO)c4ccccc34)C(=O)NC2=O)c2ccccc21` ?
4.76 µM

----------
Test system: HS 578T breast
Test: NCI tumour cell line growth inhibition, 48 h
Please respond with reported GI50 for every item in the list.

Could you share which GI50 value was measured for `O=c1c2c3c(sc2n2c(-c4cc(-c5ccccc5)no4)nnc2n1Cc1ccccc1)CCCC3` ?
18.7 µM

Proceed to `Oc1ccc(CN2CCC(N3CCOCC3)CC2)c2cccnc12`
62.1 µM

Note, next up: `O=c1c2ccccc2c(Br)c(Br)c2ccccc12`
11.8 µM

Same thing, different molecule: `CCCCCc1nc2c(c3c1CCCC3)CCCC2`
14 µM

Likewise for `COc1cc(-n2cc(-c3ccc(F)cc3)nc2SCc2ccccc2)cc(OC)c1OC` ?
> 100 µM

`Fc1ccc(-c2nn3c(-c4ccc(F)c(Cl)c4)nnc3s2)cc1` , same question.
> 50 µM
